TARGET OF ASSAY: PI3Kδ (Homo sapiens)
Construct: Full length p110 subunits of PI3k α, β and δ, N-terminally labeled with polyHis tag; polyHis (N)
Sequence (O00329 whole entry): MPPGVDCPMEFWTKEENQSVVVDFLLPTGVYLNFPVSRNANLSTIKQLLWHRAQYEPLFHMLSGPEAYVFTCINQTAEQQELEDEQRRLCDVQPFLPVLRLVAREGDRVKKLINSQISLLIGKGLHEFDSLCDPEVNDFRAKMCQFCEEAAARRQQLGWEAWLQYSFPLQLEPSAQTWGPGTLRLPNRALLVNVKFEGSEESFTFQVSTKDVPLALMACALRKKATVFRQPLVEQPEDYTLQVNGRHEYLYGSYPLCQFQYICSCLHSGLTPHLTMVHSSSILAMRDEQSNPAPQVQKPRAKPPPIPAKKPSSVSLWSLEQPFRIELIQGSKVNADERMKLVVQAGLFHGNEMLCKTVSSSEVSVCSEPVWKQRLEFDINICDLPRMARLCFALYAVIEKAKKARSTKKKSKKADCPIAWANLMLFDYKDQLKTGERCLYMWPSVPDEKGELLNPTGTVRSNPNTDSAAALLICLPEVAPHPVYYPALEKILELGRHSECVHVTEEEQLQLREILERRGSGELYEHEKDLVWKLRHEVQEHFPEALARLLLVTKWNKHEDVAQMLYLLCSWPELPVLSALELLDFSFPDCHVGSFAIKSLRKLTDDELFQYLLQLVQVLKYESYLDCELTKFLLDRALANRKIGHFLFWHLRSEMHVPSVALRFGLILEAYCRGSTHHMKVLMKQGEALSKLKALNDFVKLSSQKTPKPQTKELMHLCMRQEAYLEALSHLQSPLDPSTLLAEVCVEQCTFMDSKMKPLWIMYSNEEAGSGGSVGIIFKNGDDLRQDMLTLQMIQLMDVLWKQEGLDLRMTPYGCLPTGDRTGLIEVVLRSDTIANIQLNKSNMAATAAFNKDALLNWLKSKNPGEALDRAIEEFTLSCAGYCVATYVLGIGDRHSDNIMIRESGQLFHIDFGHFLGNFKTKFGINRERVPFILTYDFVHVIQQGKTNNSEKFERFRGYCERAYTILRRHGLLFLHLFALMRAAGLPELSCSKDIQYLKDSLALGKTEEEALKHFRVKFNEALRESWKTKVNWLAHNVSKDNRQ
Sequence (P27986 whole entry partner): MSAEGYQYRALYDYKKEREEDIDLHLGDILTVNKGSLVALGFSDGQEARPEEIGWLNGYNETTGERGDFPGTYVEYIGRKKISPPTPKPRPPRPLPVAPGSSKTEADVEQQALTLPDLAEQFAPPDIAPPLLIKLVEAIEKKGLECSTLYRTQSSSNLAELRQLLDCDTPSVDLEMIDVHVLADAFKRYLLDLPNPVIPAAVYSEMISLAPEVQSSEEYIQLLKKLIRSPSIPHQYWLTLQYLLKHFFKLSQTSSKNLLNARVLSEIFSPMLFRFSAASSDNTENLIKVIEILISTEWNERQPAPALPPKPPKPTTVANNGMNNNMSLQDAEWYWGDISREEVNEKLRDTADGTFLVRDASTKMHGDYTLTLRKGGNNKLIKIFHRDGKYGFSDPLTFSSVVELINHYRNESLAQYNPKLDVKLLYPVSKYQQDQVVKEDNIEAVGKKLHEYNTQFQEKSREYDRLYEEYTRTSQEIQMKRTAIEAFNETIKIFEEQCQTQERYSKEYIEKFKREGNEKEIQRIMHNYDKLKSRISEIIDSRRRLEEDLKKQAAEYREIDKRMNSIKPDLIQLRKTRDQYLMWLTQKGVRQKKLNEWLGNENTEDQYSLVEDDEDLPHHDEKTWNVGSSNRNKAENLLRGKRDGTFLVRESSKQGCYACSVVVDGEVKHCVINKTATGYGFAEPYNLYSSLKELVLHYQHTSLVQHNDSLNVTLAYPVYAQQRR
PROTOCOL DETAILS: PI3Kδ Alphascreen assay
Exercise: for every item that follows, state its recorded log10 of Ki.
Lab note - Ki converted to log10 from values in nM.

query: Please report the recorded log10 of Ki for Cc1ccncc1-c1nc2cc(F)cc(F)c2c(Nc2cc(N3CCOCC3)cnc2N2CCOCC2)c1C .
result: 0.21

query: Param item = Cc1c(N2CCN(c3cccnc3)CC2)nc2cc(F)cc(F)c2c1Nc1cncc(N2CCOCC2)c1 ; retrieve measured log10 of Ki.
result: 1.07

query: Give its log10 of Ki value. Item: Cc1c(-c2ccccn2)nc2cc(F)cc(F)c2c1Nc1cc(N2CCOCC2)cnc1-c1ccc(OC(F)F)cc1
result: 0.10

query: Which value of log10 of Ki has been reported for Cc1c(-c2ccccc2F)nc2cc(F)cc(F)c2c1Nc1cc(N2CCOCC2)cnc1N1CCOCC1 in the records?
result: 0.79

query: # get_value(readout='log10 of Ki', item= Cc1c(N2CCN(C(=O)c3ncccn3)CC2)nc2cc(F)cc(F)c2c1Nc1cncc(N2CCOCC2)c1 )
result: 2.81

query: Entry COc1cc(-c2nc3cc(F)cc(F)c3c(Nc3cncc(N4CCOCC4)c3)c2C)ccn1 has what log10 of Ki?
result: 2.18

query: Quick check: log10 of Ki of COc1cncc(-c2ncc(N3CCOCC3)cc2Nc2c(C)c(-c3cc(C)ccn3)nc3c(C#N)cccc23)c1 ?
result: 2.37

query: Param item = COc1ccc(-c2ccc(N3CCOCC3)cc2Nc2c(C)c(-c3ccccn3)nc3cc(F)cc(F)c23)cn1 ; retrieve measured log10 of Ki.
result: 0.50

query: Name the reported log10 of Ki value associated with the molecule Cc1c(N2CCN(CC(C)(C)C)CC2)nc2cc(F)cc(F)c2c1Nc1cncc(N2CCOCC2)c1
result: 1.99

query: Recorded log10 of Ki for Cc1c(-c2ccc(N3CCOCC3)nc2)nc2cc(F)cc(F)c2c1Nc1cncc(N2CCOCC2)c1 , please?
result: 2.65

query: Would you mind telling me what log10 of Ki value was observed for Cc1c(N2CCN(C(=O)OC(C)C)CC2)nc2cc(F)cc(F)c2c1Nc1cncc(N2CCOCC2)c1 ?
result: 1.59

query: What log10 of Ki value was documented for this molecule, Cc1cncc(-c2nc3cc(F)cc(F)c3c(Nc3cc(N4CCOCC4)cnc3N3CCOCC3)c2C)c1 ?
result: 0.95

query: For COC(=O)N1CCN(c2nc3cc(F)cc(F)c3c(Nc3cncc(N4CCOCC4)c3)c2C)C[C@H]1C , what is its reported log10 of Ki?
result: 2.27

query: What value of measured log10 of Ki is listed for Cc1c(-c2cc([N+](=O)[O-])ccc2F)nc2cc(F)ccc2c1Nc1cncc(N2CCOCC2)c1 ?
result: 1.68

query: // lookup log10 of Ki for Cc1c(N2CCN(C(=O)OC(C)(C)C)[C@H](C)C2)nc2cc(F)cc(F)c2c1Nc1cncc(N2CCOCC2)c1
result: 2.92

query: Given Cc1c(N2CCN[C@@H](C)C2)nc2cc(F)cc(F)c2c1Nc1cncc(N2CCOCC2)c1 , state its recorded log10 of Ki.
result: 1.31

query: Entry COc1cc(C)c(-c2ncc(N3CCOCC3)cc2Nc2c(C)c(-c3ccccn3)nc3cc(F)cc(F)c23)c(C)c1 : reported log10 of Ki = ?
result: -0.01

query: Requested field: log10 of Ki. Item: COc1cncc(-c2cc(C#N)c(N3CCOCC3)cc2Nc2c(C)c(-c3ccccn3)nc3cc(F)cc(F)c23)c1
result: 0.90

query: Given the entry Cc1c(-c2cc(OC(F)(F)F)ccc2S(C)(=O)=O)nc2cc(F)cc(F)c2c1Nc1cncc(N2CCOCC2)c1 , report its measured log10 of Ki.
result: 0.62

query: Would you kindly share the measured log10 of Ki for Cc1c(N2CCN(C(=O)c3ncc[nH]3)CC2)nc2cc(F)cc(F)c2c1Nc1cncc(N2CCOCC2)c1 ?
result: 1.74

query: Give its log10 of Ki value. Item: Cc1c(N2CCN(C(=O)NC(C)C)CC2)nc2cc(F)cc(F)c2c1Nc1cncc(N2CCOCC2)c1
result: 1.70

query: For the molecule shown here, Cc1c(NCC(=O)O)nc2cc(F)cc(F)c2c1Nc1cncc(N2CCOCC2)c1 , give the reported log10 of Ki.
result: 2.12

query: Would you kindly share the measured log10 of Ki for Cc1c(N2CCN(C(C)C)CC2)nc2cc(F)cc(F)c2c1Nc1cncc(N2CCOCC2)c1 ?
result: 1.05

query: Dear colleague, I am looking for the recorded log10 of Ki of the following molecule: Cc1c(-c2ccccn2)nc2cc(F)cc(F)c2c1Nc1cc(N2CCOCC2)cnc1-c1ccc(C#N)cc1
result: 0.74

query: # get_value(readout='log10 of Ki', item= CCN1CCN(c2nc3cc(F)cc(F)c3c(Nc3cncc(N4CCOCC4)c3)c2C)CC1=O )
result: 1.12

query: Dear colleague, I am looking for the recorded log10 of Ki of the following molecule: Cc1c(-c2cccnc2)nc2cc(F)cc(F)c2c1N(C(=O)C(F)(F)F)c1cncc(N2CCOCC2)c1
result: 1.67

query: So what does the record say about log10 of Ki for Cc1c(N2CCN(S(=O)(=O)c3cccc(F)c3)CC2)nc2cc(F)cc(F)c2c1Nc1cncc(N2CCOCC2)c1 ?
result: 1.79

query: # log10 of Ki lookup, item Cc1c(N2CCN(S(=O)(=O)c3ccccc3F)CC2)nc2cc(F)cc(F)c2c1Nc1cncc(N2CCOCC2)c1
result: 1.82

query: Entry Cc1c(-c2cc([N+](=O)[O-])ccc2F)nc2cc(F)ccc2c1Nc1cc(N2CCOCC2)cnc1N1CCOCC1 has what log10 of Ki?
result: 1.05

query: Return reported log10 of Ki; argument: Cc1c(N2CC(C)(C)CC2=O)nc2cc(F)cc(F)c2c1Nc1cncc(N2CCOCC2)c1
result: 1.33

query: GET /values?readout=log10 of Ki&item= CC(=O)N1CCN(c2nc3cc(F)cc(F)c3c(Nc3cncc(N4CCOCC4)c3)c2C)CC1
result: 1.53

query: What value of log10 of Ki has been recorded for this entry: Cc1ccc(S(C)(=O)=O)c(-c2nc3cc(F)cc(F)c3c(Nc3cc(N4CCOCC4)cnc3N3CCOCC3)c2C)c1
result: 0.91

query: # query: log10 of Ki of entry Cc1ccnc(-c2nc3cc(F)cc(F)c3c(Nc3cncc(C4=CCOCC4)c3)c2C)c1
result: 1.16

query: # query: log10 of Ki of entry COc1cncc(-c2ncc(N3CCOCC3)cc2Nc2c(C)c(-c3cc(C)ccn3)nc3c(Cl)cccc23)c1
result: 0.95
